System: NCI-H23 lung
PROCEDURE_DETAILS: NCI-60 one-dose screen, 48 h (100 = growth as untreated, 0 = no growth, -100 = all killed)
CONDITION_SUMMARY: 10 µM unless noted
Compounds without any hit were thinned out: in the full panel of roughly 83,000, 20% have a hit.
Recorded growth values for a group of molecules are listed next.
MEASUREMENT_LABEL: growth (%)

[[record]]
molecule = "CC1=NN(c2ccc(S(=O)(=O)O)cc2)C(=O)C1N=Nc1ccc(-c2ccc(N=Nc3ccc(OS(=O)(=O)c4ccc(C)cc4)cc3)c(S(=O)(=O)O)c2)cc1 (stereo not drawn)"
experimental_result = 87.4

[[record]]
molecule = "O=C(CSc1nccc(Nc2ccc(S(=O)(=O)Nc3nccs3)cc2)n1)c1ccc(C(F)(F)F)cc1"
experimental_result = 88.1

[[record]]
molecule = "CC(=O)OC[C@H]1OC(Sc2sc(C(=O)c3ccc(Br)cc3)c(N)c2-c2nc3ccccc3s2)[C@H](OC(C)=O)[C@@H](OC(C)=O)[C@H]1OC(C)=O (stereo partly drawn)"
experimental_result = 88.4

[[record]]
molecule = "Cc1nc2ccccc2n1CC1C(=O)NC(=O)NC1=O"
experimental_result = 102

[[record]]
molecule = "COc1ccc(/C=C(\\C#N)n2nnc3c(F)cccc32)cc1"
experimental_result = 18

[[record]]
molecule = "Cc1ccc(/C=N\\NC(=O)c2[nH]c3ccc(F)cc3c2-c2ccccc2)cc1"
experimental_result = 38

[[record]]
molecule = "CCc1ccc(Oc2c(-c3ccc(OCc4ccc(Cl)cc4)cc3O)nn(C)c2C(F)(F)F)cc1"
experimental_result = -14.2

[[record]]
molecule = "CC(=O)N1CCN(c2ccc(OCC3CO[C@](Cn4ccnc4)(c4ccc(Cl)cc4Cl)O3)cc2)CC1 (stereo partly drawn)"
experimental_result = 78.3

[[record]]
molecule = "COc1ccc(/C=C2\\Oc3cc(OCCN4CCC(Cc5ccccc5)CC4)ccc3C2=O)cc1OC"
experimental_result = 68.6

[[record]]
molecule = "CCOC(=O)Cn1c(C)c(/C=N/NC(=O)c2cc3c(ccc4ccccc43)o2)c2ccccc21"
experimental_result = 27.7

[[record]]
molecule = "O=C(N/N=C/[C@H](O)[C@@H](O)[C@@H](O)[C@H](O)CO)c1ccc(NC(=O)c2cccnc2)cc1"
experimental_result = 110

[[record]]
molecule = "O=c1ccn(Cc2cn(-c3c4ccccc4nc4ccccc34)nn2)c(=O)[nH]1"
experimental_result = 94

[[record]]
molecule = "Clc1ccc(C(/C=C/c2sc(Cl)nc2Cl)=N/Nc2cc(Cl)cc(Cl)c2)cc1"
experimental_result = 92.2


---

System: SR leukemia
PROCEDURE_DETAILS: NCI-60 one-dose screen, 48 h
CONDITION_SUMMARY: 10 µM unless noted
The panel holds about 83,000 compounds, 20% with a hit somewhere; the sample as a whole holds those more often. Activity calls are given as the source filed them. Rule for the calls: active = growth percent below 10; inactive = the rest.
Labels: 1 = active, -1 = inactive

[[record]]
molecule = "CCc1ccc(Oc2c(-c3ccc(OCCc4cccc(C(F)(F)F)c4)cc3O)n[nH]c2C(F)(F)F)cc1"
class_assignment = -1

[[record]]
molecule = "Cc1nn(-c2ccccc2)c(-n2ccnc2)c1/C=N/Nc1nc(-c2ccc(Cl)c(Cl)c2)cs1"
class_assignment = -1

[[record]]
molecule = "Cc1cc(C)c(-c2c(N)cc(Br)cc2Br)c(N)c1"
class_assignment = -1

[[record]]
molecule = "NCCCNc1nc2ccccc2c2c(=O)c3cccc(F)c3sc12"
class_assignment = 1

[[record]]
molecule = "Cn1cc(-c2cc3ncnc(Nc4ccc(CC(=O)Nc5cc(C(C)(C)C)nn5C)cc4)c3s2)cn1"
class_assignment = 1

[[record]]
molecule = "CCOC(=O)C1=C(N)Oc2c(sc3c(C)cccc23)C1c1ccc(OC)cc1 (stereo not given)"
class_assignment = -1

[[record]]
molecule = "CCOC(=O)C1=C(N)Oc2c(sc3c(C)cccc23)C1c1ccc(F)cc1 (stereo not given)"
class_assignment = 1

[[record]]
molecule = "Cc1nn(-c2ccccc2)c2c1N=c1s/c(=C\\c3ccc(C(F)(F)F)cc3)c(=O)n1CN2"
class_assignment = -1

[[record]]
molecule = "OC(c1ccccc1)C(NC(Cc1ccccc1)c1ccccc1)c1ccccc1 (stereo not given)"
class_assignment = -1

[[record]]
molecule = "COc1cccc(-c2nc(-c3ccc(NS(=O)(=O)c4ccccc4)cc3)[nH]c2-c2ccnc(Br)c2)c1"
class_assignment = 1

[[record]]
molecule = "COc1cccc(-c2nc(-c3ccc(NC(=O)C(C)C)cc3)[nH]c2-c2ccnc(Br)c2)c1"
class_assignment = 1

[[record]]
molecule = "CCCCNC(=O)Oc1ccc(/C(=C(\\C)c2ccc(Cl)cc2)c2ccc(OCCN3CCCCC3)cc2)cc1"
class_assignment = 1

[[record]]
molecule = "CCc1cccc2c3c(sc12)C(c1ccc(Cl)cc1)C(C#N)=C(N)O3 (stereo not given)"
class_assignment = -1

[[record]]
molecule = "Cc1ccc(-c2nc(N3CCN(C(=O)c4ccc(OC(F)(F)F)cc4)CC3)c3ccccc3n2)cc1"
class_assignment = -1

[[record]]
molecule = "Cc1ccc(S(=O)(=O)N/N=C/C2(c3ccccc3)CC2)cc1"
class_assignment = -1

[[record]]
molecule = "CCOC(=O)c1cnn2c3ccccc3n(S(=O)(=O)c3ccc(OC)cc3)c12"
class_assignment = -1

[[record]]
molecule = "COc1ccc(CN2c3ccccc3CCc3ccccc32)cc1F"
class_assignment = -1

[[record]]
molecule = "O=C1CCC/C=C\\C[C@H]2C=CC(=O)/C2=C/C[C@H](CCc2cccc(C(F)(F)F)c2)O1"
class_assignment = 1

[[record]]
molecule = "CC1(C)C2CC1C1(/C=N/NC(N)=S)C(C2)C(C#N)(C#N)C1(C#N)C#N (stereo not given)"
class_assignment = 1

[[record]]
molecule = "CNCCCNc1nc2ccccc2c2c(=O)c3cc(F)ccc3sc12"
class_assignment = 1

[[record]]
molecule = "CNCCCNc1nc2ccccc2c2c(=O)c3cc(OC)ccc3sc12"
class_assignment = 1

[[record]]
molecule = "Cc1cccc2c3c(sc12)C(c1ccc(Cl)cc1)C(C#N)=C(N)O3 (stereo not given)"
class_assignment = -1

[[record]]
molecule = "O=c1c2cccc(F)c2sc2c(NCCCNCCO)nc3ccccc3c12"
class_assignment = 1

[[record]]
molecule = "CC(C)n1cnc2c(Nc3cccc(Cl)c3)nc(N[C@H]3CCCC[C@@H]3N)nc21"
class_assignment = -1

[[record]]
molecule = "O=C1CCC(C(=O)NCCNCCNC(=O)C2CCC(=O)N2)N1 (stereo not given)"
class_assignment = -1

[[record]]
molecule = "O=c1c2cc(F)ccc2sc2c(NCCO)nc3ccccc3c12"
class_assignment = -1

[[record]]
molecule = "O=C(CCN1C(=O)/C(=C/c2ccc(O)cc2)SC1=S)Nc1ccc(Cl)cc1"
class_assignment = -1

[[record]]
molecule = "Cc1ccc(/C=N\\NC(=O)c2[nH]c3ccc(F)cc3c2-c2ccccc2)cc1"
class_assignment = -1

[[record]]
molecule = "Oc1ccc(C#CCOc2ccccc2)cc1CNCCN(Cc1ccccn1)Cc1ccccn1"
class_assignment = 1

[[record]]
molecule = "Cc1[nH]c(C(=O)Nc2ccc(C(=O)NCCN)cc2OC(C)C)c(Cl)c1Cl"
class_assignment = 1

